Listed below: viability at 10 µM values for each entry.
# System: SKBR-3
# assay_name: MTT assay, SKBR-3 breast cancer cells
# Assay type: cell-based
# study_conditions: Homo sapiens, SK-BR-3; 10 μM, 72 h after the treatment, MTT, mean of three independent experiments; read-out: Percentage of cell viability SKBR-3
Enter your answer as a number in %; do not include the unit.

>  <compound_structure>
CC(C)c1ccc(Nc2nc(N)nc(-c3ccc(N(C)C)cc3)n2)cc1

>  <study_target>
SKBR-3

>  <measured_value>
87

$$$$
>  <compound_structure>
Cc1cccc(-c2nc(N)nc(Nc3ccc(OC(F)(F)F)cc3)n2)c1

>  <study_target>
SKBR-3

>  <measured_value>
100

$$$$
>  <compound_structure>
Nc1nc(Nc2ccccc2F)nc(-c2ccc(Cl)cc2)n1

>  <study_target>
SKBR-3

>  <measured_value>
99

$$$$
>  <compound_structure>
Nc1nc(Nc2ccccc2)nc(-c2ccc(C(F)(F)F)cc2)n1

>  <study_target>
SKBR-3

>  <measured_value>
97

$$$$
>  <compound_structure>
Cc1ccc(-c2nc(N)nc(Nc3ccc(OC(F)(F)F)cc3)n2)cc1

>  <study_target>
SKBR-3

>  <measured_value>
84

$$$$
>  <compound_structure>
Nc1nc(Nc2ccc(OC(F)(F)F)cc2)nc(-c2ccc(OCc3ccccc3)cc2)n1

>  <study_target>
SKBR-3

>  <measured_value>
87

$$$$
>  <compound_structure>
COc1ccc(Nc2nc(N)nc(-c3ccc(OC)cc3)n2)cc1

>  <study_target>
SKBR-3

>  <measured_value>
93

$$$$
>  <compound_structure>
Nc1nc(Nc2cccnc2)nc(-c2ccc(F)cc2)n1

>  <study_target>
SKBR-3

>  <measured_value>
87

$$$$

# query: viability at 10 µM | item CC(C)(C)c1ccc(-c2nc(N)nc(Nc3ccc(Cl)cc3)n2)cc1 | system: SKBR-3
92

# query: viability at 10 µM | item Nc1nc(Nc2ccccc2)nc(-c2cccc(F)c2)n1 | system: SKBR-3
100

# query: viability at 10 µM | item Nc1nc(Nc2ccc(Cl)cc2)nc(-c2ccccc2)n1 | system: SKBR-3
94

# query: viability at 10 µM | item Nc1nc(Nc2cccnc2)nc(-c2ccccc2)n1 | system: SKBR-3
78

# query: viability at 10 µM | item Nc1nc(Nc2ccc(Br)cc2)nc(-c2ccccc2)n1 | system: SKBR-3
97

# query: viability at 10 µM | item Nc1nc(Nc2ccccc2)nc(-c2ccc(Cl)cc2)n1 | system: SKBR-3
100

# query: viability at 10 µM | item Cc1ccc(-c2nc(N)nc(Nc3ccccc3)n2)cc1 | system: SKBR-3
100

----------
# System: SKBR-3
# assay_name: MTT assay, SKBR-3 breast cancer cells
# Assay type: cell-based
# study_conditions: Homo sapiens, SK-BR-3; 10 μM, 72 h after the treatment, MTT, mean of three independent experiments; read-out: Percentage of cell viability SKBR-3
measurement_type: viability at 10 µM (%)
Enter your answer as a number in %; do not include the unit.

Example compounds with recorded viability at 10 µM:
>  <compound_structure>
Cc1ccc(Nc2nc(N)nc(-c3ccc(C)cc3)n2)cc1

>  <viability at 10 µM (%)>
92

$$$$
>  <compound_structure>
Nc1nc(Nc2ccccc2Cl)nc(-c2ccc(F)cc2)n1

>  <viability at 10 µM (%)>
75

$$$$
>  <compound_structure>
Cc1ccc(Nc2nc(N)nc(-c3ccc(F)cc3)n2)cc1

>  <viability at 10 µM (%)>
90

$$$$
>  <compound_structure>
Cc1ccc(-c2nc(N)nc(Nc3ccccc3F)n2)cc1

>  <viability at 10 µM (%)>
79

$$$$

Consider the compound Nc1nc(Nc2ccc(F)cc2)nc(-c2ccc(Cl)cc2)n1 and give its measured viability at 10 µM.
98
